compounds and their reported EC50
# target-under-test: GLP-1R (Homo sapiens, UniProt P43220)
# Sequence (P43220 24-463): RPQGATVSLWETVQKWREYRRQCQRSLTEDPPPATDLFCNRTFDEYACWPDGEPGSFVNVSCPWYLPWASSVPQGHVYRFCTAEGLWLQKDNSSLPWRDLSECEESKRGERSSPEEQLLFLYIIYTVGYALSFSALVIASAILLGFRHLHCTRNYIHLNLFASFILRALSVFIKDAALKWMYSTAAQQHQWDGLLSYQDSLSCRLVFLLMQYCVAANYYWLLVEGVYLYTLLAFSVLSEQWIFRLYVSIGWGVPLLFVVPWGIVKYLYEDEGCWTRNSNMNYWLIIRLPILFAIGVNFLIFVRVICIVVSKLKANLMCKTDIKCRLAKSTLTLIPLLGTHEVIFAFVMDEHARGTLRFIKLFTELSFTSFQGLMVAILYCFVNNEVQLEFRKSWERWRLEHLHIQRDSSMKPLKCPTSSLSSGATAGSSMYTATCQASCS
# assay-protocol: GLP-1R activation cAMP assay (Assay 1 or Assay 2)
# cond: cAMP increase in CHO cells stably expressing GLP-1R; compounds run on one of the two cAMP assays
I only need the number, in nM, no unit after it.

CNC(=O)c1cc(Cl)c(COc2cccc(-c3cc(F)c(Cc4nc5c(F)cc(C(=O)O)cc5n4[C@@H]4COCC4(C)C)cc3F)n2)cn1: 0.164
O=C(O)c1ccc2nc(Cc3cc(F)c(-c4cccc(OCc5ncc(-c6cnccn6)s5)n4)cc3F)n(C[C@@H]3CCO3)c2c1: 0.14
Cn1cc(CNC(=O)c2cc(Cl)c(COc3cccc(-c4cc(F)c(Cc5nc6ccc(C(=O)O)cc6n5C[C@@H]5CCO5)cc4F)n3)cn2)cn1: 0.22
CC1(C)COC[C@H]1n1c(Cc2cc(F)c(-c3cccc(OCc4ncc(C(F)(F)F)s4)n3)cc2F)nc2ccc(C(=O)O)cc21: 0.318
Cc1nnc(COc2cccc(-c3cc(F)c(Cc4nc5c(F)cc(C(=O)O)cc5n4[C@@H]4COCC4(C)C)cc3F)n2)s1: 0.109

Now let's try a different one.
So the reported EC50 for O=C(O)c1ccc2nc(Cc3cc(F)c(-c4cccc(OCc5cc[nH]n5)n4)cc3F)n(C[C@@H]3CCO3)c2c1 , on GLP-1R (Homo sapiens, UniProt P43220), turned out to be 5.99

This collection of values is drawn from patent US20250312352A1.
